Listed here: items and their measured Km.
# Substrate: NC(=O)C[C@H](N)C(=O)O
# assay-name: Nessler reagent assay of ammonia, Michaelis-Menten fit
# Assay type: biochemical, Thermococcus litoralis
# settings: pH 10, 80 °C, 0.5-18.0 mM L-asparagine, free enzyme
Only the number, expressed in mM, is required.

Recorded results for 2 proteins are shown here.
L-asparaginase Tli10209 (Thermococcus litoralis DSM 5473; F36Y/T70A) (protein) MSEKRKLERRGAEDMKRILIIGTGGTIASAKTDAGYKSVLTIDEILEKADIKLKNGYEIDTRNILNIDSALIQPEDWERIAKEVYKALEDYDGIVITHGTDTLAYTASMLTFMIRGINKPVVLTGSMRPVTEEESDAPRNLKAAIRFAMEDVSGIFVAFMDKIMLGCRTSKIRALGLNAFMSINYPDVAYVKGEEVIYNLPQKRFKPKGEPVLDTKYEPRVVFIRLTPGLDGNAIDALVKAGYRGIVLEGYGAGGIPYRKRDILSKIREITPQIPVVMTTQALYDGVDLTKYEVGRKALEAGIIPAKDMTKETTITKLMWALGHTKNVEEVKEIMHTNYADEIEG	6.28
L-asparaginase Tli10209 (Thermococcus litoralis DSM 5473; K48L) (protein) MSEKRKLERRGAEDMKRILIIGTGGTIASAKTDAGFKSVLTIDEILELADIKLKNGYEIDTRNILNIDSTLIQPEDWERIAKEVYKALEDYDGIVITHGTDTLAYTASMLTFMIRGINKPVVLTGSMRPVTEEESDAPRNLKAAIRFAMEDVSGIFVAFMDKIMLGCRTSKIRALGLNAFMSINYPDVAYVKGEEVIYNLPQKRFKPKGEPVLDTKYEPRVVFIRLTPGLDGNAIDALVKAGYRGIVLEGYGAGGIPYRKRDILSKIREITPQIPVVMTTQALYDGVDLTKYEVGRKALEAGIIPAKDMTKETTITKLMWALGHTKNVEEVKEIMHTNYADEIEG	9.62

Please look at the following protein next.
Query: Bench note: what Km did L-asparaginase Tli10209 (Thermococcus litoralis DSM 5473; D50G/T70A) (protein) MSEKRKLERRGAEDMKRILIIGTGGTIASAKTDAGFKSVLTIDEILEKAGIKLKNGYEIDTRNILNIDSALIQPEDWERIAKEVYKALEDYDGIVITHGTDTLAYTASMLTFMIRGINKPVVLTGSMRPVTEEESDAPRNLKAAIRFAMEDVSGIFVAFMDKIMLGCRTSKIRALGLNAFMSINYPDVAYVKGEEVIYNLPQKRFKPKGEPVLDTKYEPRVVFIRLTPGLDGNAIDALVKAGYRGIVLEGYGAGGIPYRKRDILSKIREITPQIPVVMTTQALYDGVDLTKYEVGRKALEAGIIPAKDMTKETTITKLMWALGHTKNVEEVKEIMHTNYADEIEG show?
Reply: 2.68
